Tested on: HL-60
Test: Cytotoxicity against Homo sapiens (human) HL60 cells up to 25 ug/ml
Assay type: cell-based

| molecule | Activity |
| --- | --- |
| COc1ccc(/C=N/NC(=O)c2ccc(F)cc2)cc1O | Non-toxic |
| O=C(N/N=C/c1ccc(Br)cc1)c1ccc(F)cc1 | Non-toxic |
| O=C(N/N=C/c1ccc(F)cc1)c1ccc(F)cc1 | Non-toxic |
| CC(=O)N1N=C(c2ccc(F)cc2)OC1c1ccc(Br)cc1 (configuration not stated) | Non-toxic |
| CC(=O)N1N=C(c2ccc(F)cc2)OC1/C=C/c1ccc(N(C)C)cc1 (configuration not stated) | Non-toxic |
| O=C(N/N=C/c1ccccc1)c1ccc(F)cc1 | Non-toxic |
| O=C(N/N=C/c1ccc(O)cc1)c1ccc(F)cc1 | Non-toxic |
| CC(=O)N1N=C(c2ccc(F)cc2)OC1c1ccc(N(C)C)cc1 (configuration not stated) | Non-toxic |
| CC(=O)N1N=C(c2ccc(F)cc2)OC1c1ccc(O)cc1 (configuration not stated) | Non-toxic |
| CC(=O)N1N=C(c2ccc(F)cc2)OC1c1ccc(F)cc1 (configuration not stated) | Non-toxic |
| CN(C)c1ccc(/C=C/C=N/NC(=O)c2ccc(F)cc2)cc1 | Non-toxic |
| COc1ccc(C2OC(c3ccc(F)cc3)=NN2C(C)=O)cc1 (configuration not stated) | Non-toxic |
